For each entry below, report its IC50 value.
tested on: HeLa; assay: Cytotoxicity against human HeLa cells after 48 hrs by MTT assay; format: functional, cell-based
Write the number in µM without appending the unit.

Give the reported IC50 for this compound. CC(C)c1ccc2c(c1)CC[C@H]1[C@](C)(C(=O)NC(=S)N[C@@H](Cc3ccccc3)C(=O)Nc3ccccc3Cl)CCC[C@]21C
17

Give the reported IC50 for this compound. CC(C)c1ccc2c(c1)CC[C@H]1[C@](C)(C(=O)NC(=S)N[C@@H](Cc3ccccc3)C(=O)Nc3cccc4ccccc34)CCC[C@]21C
12.8

Give the reported IC50 for this compound. COc1ccc(NC(=O)[C@H](Cc2ccccc2)NC(=S)NC(=O)[C@]2(C)CCC[C@]3(C)c4ccc(C(C)C)cc4CC[C@@H]23)cc1
15.6

Give the reported IC50 for this compound. Cc1ccccc1NC(=O)[C@H](Cc1ccccc1)NC(=S)NC(=O)[C@]1(C)CCC[C@]2(C)c3ccc(C(C)C)cc3CC[C@@H]12
17.7

Give the reported IC50 for this compound. CC(=O)N1N=C(c2cccs2)CC1c1cc2c([nH]c3ccccc32)c(-c2ccc(F)c(F)c2)n1 (configuration not stated)
8.7

Give the reported IC50 for this compound. CCOc1ccc(/C=C2\CCc3c([nH]c4c(C)cccc34)C2=O)cc1OCC
1.5

Give the reported IC50 for this compound. CC(C)c1ccc2c(c1)CC[C@H]1[C@](C)(C(=O)NC(=S)N[C@@H](Cc3ccccc3)C(=O)Nc3ccccn3)CCC[C@]21C
6.58

---

tested on: MCF7; assay: Cytotoxicity against human MCF7 cells after 48 hrs by MTT assay; type: functional, cell-based; conditions: MCF7, 48 h
Response field class: string, computed from recorded IC50 by ranges bin 0 (below 4 µM), bin 1 (4 µM to below 10 µM), bin 2 (10 µM or more)

Category of Cc1cc(O)c2c(c1)C(=O)c1cc(OCCN(C)C)cc(O)c1C2=O :
bin 1

Category of COc1cc(O)c2c(c1O)C(=O)C1=C(C[C@@H](O)[C@@](C)(O)C1)C2=O :
bin 0

Category of CC(CO)c1cc(O)c2c(c1)[C@@H](O)C[C@H]1C(C)(C)CCC[C@]1(O)C2 (some centres undefined) :
bin 2

Category of C[C@]1(O)Cc2c(O)c3c(c(O)c2[C@H](O)[C@H]1O)C(=O)C=C(N1CCCCC1)C3=O :
bin 0

Category of C=C[C@@]1(C)C=C2[C@@H](O[C@@H]3O[C@H](C)[C@H](O)[C@H](O)[C@H]3O)C[C@@H]3C(C)(C)[C@H](O[C@@H]4O[C@@H](C)[C@H](O)[C@@H](O)[C@H]4O[C@H]4O[C@H](CO)[C@@H](O)[C@H](O)[C@H]4O)CC[C@@]3(C)[C@@H]2CC1 :
bin 1

Category of COc1cc(O)c2c(c1O)C(=O)C1=C(C2=O)C(O)C(O)C(C)(O)C1 (centres undefined) :
bin 1

Category of C#CCOc1cc(O)c2c(c1)C(=O)c1cc(C)cc(O)c1C2=O :
bin 2

Category of C[C@]1(O)Cc2c(O)c3c(c(O)c2[C@H](O)[C@H]1O)C(=O)C=C(N1CCC(c2ccccc2)CC1)C3=O :
bin 1

---

tested on: HeLa; test: Cytotoxicity against human HeLa cells by MTT assay; format: functional, cell-based
measuredAttribute: IC50 (µM)
Write the number in µM without appending the unit.

# return IC50 of CCOC(=O)c1cc2c3ccccc3n(Cc3ccccc3)c2cn1 (system: HeLa)
13

# return IC50 of CCn1c2ccccc2c2cc(C(=O)OC)ncc21 (system: HeLa)
17

# return IC50 of CCn1c2cc(OC)ccc2c2ccnc(C)c21 (system: HeLa)
17

---

tested on: MCF7; experiment: Cytotoxicity against human MCF7 cells after 24 hrs by MTT assay; type: functional, cell-based; conditions: MCF7, 24 h
measuredAttribute: IC50

Give the reported IC50 for this compound. CCN(CC)CCCC(C)Nc1c2ccc(Cl)cc2nc2ccc(OC)cc12 (stereo unspecified) [QUINACRINE]
7.5 µM

---

system: HeLa; experiment: Cytotoxicity against human HeLa cells after 48 hrs by MTT assay; type: functional, cell-based
For each entry below, report its IC50 value.
Write the number in µM without appending the unit.

Give the reported IC50 for this molecule. COc1c(O)cc2oc3cc(O)c(CC=C(C)C)c(O)c3c(=O)c2c1C/C=C(\C)CCC=C(C)C
11.7

Give the reported IC50 for this molecule. CC(C)c1ccc2c(c1)CC[C@H]1[C@](C)(C(=O)NC(=S)N[C@@H](Cc3ccccc3)C(=O)Nc3ccc(Br)cc3)CCC[C@]21C
15.7

Give the reported IC50 for this molecule. O=C(/C=C/c1cc2c([nH]c3ccccc32)c(-c2ccc(C(F)(F)F)cc2)n1)c1ccc[nH]1
7.24

Give the reported IC50 for this molecule. Cc1cccc2c1ccc1cc(C(C)CO)c(=O)oc12 (centres undefined)
0.86

---

For each entry below, report its IC50 value.
system: HeLa; assay: Cytotoxicity against human HeLa cells after 48 hrs by MTT assay; format: functional, cell-based
Write the number in µM without appending the unit.

Give the reported IC50 for this compound. COc1ccc(-c2nc(/C=C/C(=O)c3ccc(N)cc3)cc3c2[nH]c2ccccc23)cc1OC
13.5

Give the reported IC50 for this compound. COc1cc(-c2nc(/C=C/C(=O)c3ccc(F)cc3)cc3c2[nH]c2ccccc23)cc(OC)c1OC
13.4

Give the reported IC50 for this compound. CC(C)c1ccc2c(c1)CC[C@H]1[C@](C)(C(=O)NC(=S)N[C@@H](Cc3ccccc3)C(=O)Nc3ccccc3Br)CCC[C@]21C
12.7

Give the reported IC50 for this compound. CC(C)c1cc2c(cc1O)[C@@]1(C)CCCC(C)(C)[C@@H]1[C@@H](O)C2=O
7.7

---

tested on: HeLa; assay: Cytotoxicity against human HeLa cells after 48 hrs by MTT assay; assay type: functional, cell-based
measuredAttribute: pIC50
Give only the number. pIC50 is defined as minus log10 of concentration in molar units.

Give the reported pIC50 for this molecule. Cc1cccc2c1ccc1cc(C(C)C)c(=O)oc12
5.10

Give the reported pIC50 for this molecule. COc1cc(-c2nc(/C=C/C(=O)c3ccc(O)cc3)cc3c2[nH]c2ccccc23)cc(OC)c1OC
4.90

Give the reported pIC50 for this molecule. COc1cc2oc3cc(O)c(OC)c(CC=C(C)C)c3c(=O)c2c(O)c1CC=C(C)C
4.89
